tested on: Aspergillus flavus; test: Antifungal activity against Aspergillus flavus assessed as macroscopically visible colonies after 48 and 72 hrs by standard agar dilution method; type: functional
Metric name: MIC (µg/mL)
Respond with the bare value in µg/mL.

// worked examples, MIC included
                                   molecule  target_or_test_system  unit_spec  meas_value
0  Cc1cccc(-c2nnc(-c3cn(C4CCN(C(=O)c5ccccc5)CC4)nn3)o2)c1     Aspergillus flavus      µg/mL         150
1  COc1cccc(-c2nnc(-c3cn(C4CCN(C)CC4)nn3)o2)c1     Aspergillus flavus      µg/mL          50
2  CS(=O)(=O)N1CCC(n2cc(-c3nnc(-c4cccc(Cl)c4)o3)nn2)CC1     Aspergillus flavus      µg/mL          15
3  CS(=O)(=O)N1CCC(n2cc(-c3nnc(-c4cccc(O)c4)o3)nn2)CC1     Aspergillus flavus      µg/mL          15
4  O=C(c1ccc(Cl)cc1)N1CCC(n2cc(-c3nnc(-c4ccccc4)o3)nn2)CC1     Aspergillus flavus      µg/mL          90
5  CN1CCC(n2cc(-c3nnc(-c4cccc(Cl)c4)o3)nn2)CC1     Aspergillus flavus      µg/mL          40
6  CS(=O)(=O)N1CCC(n2cc(-c3nnc(-c4ccccc4)o3)nn2)CC1     Aspergillus flavus      µg/mL          45
7  CC(C)(C)OC(=O)N1CCC(n2cc(-c3nnc(-c4ccccc4)o3)nn2)CC1     Aspergillus flavus      µg/mL         100

Query: I have this molecule here, OC(Cn1cncn1)(Cn1cncn1)c1ccc(F)cc1F [FLUCONAZOLE] , and I need its recorded MIC.
Result: 5

Query: For the molecule `CN1CCC(n2cc(-c3nnc(-c4cccc(O)c4)o3)nn2)CC1` , what MIC is on record?
Result: 25

Query: Recorded MIC of `CC(=O)N1CCC(n2cc(-c3nnc(-c4cccc(Cl)c4)o3)nn2)CC1` , please.
Result: 20

Query: Please look up its MIC: `CN1CCC(n2cc(-c3nnc(-c4ccccc4)o3)nn2)CC1`
Result: 60

Query: Endpoint output: MIC of `CCN1CCC(n2cc(-c3nnc(-c4ccccc4)o3)nn2)CC1` . Value?
Result: 60

Query: Given `CCN1CCC(n2cc(-c3nnc(-c4cccc(Cl)c4)o3)nn2)CC1` , state its recorded MIC.
Result: 25

Query: Value lookup for MIC; key = `CCN1CCC(n2cc(-c3nnc(-c4cccc(O)c4)o3)nn2)CC1`
Result: 20

Query: Can you share its MIC? I mean this molecule: `CC(=O)N1CCC(n2cc(-c3nnc(-c4cccc(C)c4)o3)nn2)CC1`
Result: 35

Query: For Clc1ccc(COC(Cn2ccnc2)c2ccc(Cl)cc2Cl)c(Cl)c1 (stereo unspecified) [MICONAZOLE] , what is its reported MIC?
Result: 12.5

Query: I'd like to know its MIC. The molecule in question is `c1ccc(-c2nnc(-c3cn(C4CCNCC4)nn3)o2)cc1`
Result: 90

Query: Which MIC reading was recorded for the molecule `CS(=O)(=O)N1CCC(n2cc(-c3nnc(-c4cccc([N+](=O)[O-])c4)o3)nn2)CC1` ?
Result: 50

Query: Can you share its MIC? I mean this molecule: `O=C(c1ccccc1)N1CCC(n2cc(-c3nnc(-c4ccccc4)o3)nn2)CC1`
Result: 150

Query: So what does the record say about MIC for `CCN1CCC(n2cc(-c3nnc(-c4cccc(OC)c4)o3)nn2)CC1` ?
Result: 50
